- EXPERIMENT_DESCRIPTION: qHTS Assay for Lipid Storage Modulators in Drosophila S3 Cells
- TEST_PARAMETERS: BODIPY lipid droplet fluorescence, 18-24 h, cells fed with added oleic acid; series mostly up to 46.1 µM
Among all 320,000 compounds or so, about 2,100 (0.66%) were called active. About 53% were inconclusive and are not listed. Calls come from the whole dose curve; as a rule, active = well fitted inhibition curve with a large enough effect in the signal ratio, with a control signal flat (not every such curve was filed as active); inconclusive = small, poorly fitted or top-dose-only effect, or effect the other way, or a change in a side signal; inactive = flat fitted curve, though single readings scatter; the % refers to the signal ratio. This is one part of a sample in which actives are shown more often than they occur.
Outcomes: active, inactive

compound=COc1ccc(OC)c(S(=O)(=O)NC2CC2)c1 assigned_category=inactive
compound="Cc1ccc(-c2ccccc2NC(=O)CS(=O)CC(=O)Nc2ccc(C)c(Cl)c2)o1 (stereo not given)" assigned_category=active
compound="Cc1ccc(NC(=O)CS(=O)CC(=O)Nc2ccccc2-c2ccc(C)o2)cc1 (stereo not given)" assigned_category=inactive
compound="Cc1ccc(NC(=O)CS(=O)CC(=O)NCCCc2ccccc2)cc1Cl (stereo not given)" assigned_category=inactive
compound="Cc1ccccc1-n1ncc2c1CC(C)(C)CC2NC(=O)CCN1CCCCC1=O (stereo not given)" assigned_category=inactive
compound=CCCN(CC(=O)Nc1ccccc1C)C(=O)c1ccc(COc2ccccc2)cc1 assigned_category=inactive
compound=CCCN(CC(=O)Nc1ccccc1C)C(=O)c1ccc(N2CCCCC2)c([N+](=O)[O-])c1 assigned_category=inactive
compound=COc1ccc(CNC(=S)Nc2ccccc2)cc1Cl assigned_category=inactive
compound=Cc1ccc(S(=O)(=O)c2nc(-c3ccccc3Cl)oc2NCCCN2CCOCC2)cc1 assigned_category=inactive
compound=CC(=O)N1CCN(c2ccccc2NC(=O)COc2cc(C)cc(C)c2)CC1 assigned_category=inactive

###

Recorded cell number change for the following compounds
- EXPERIMENT_DESCRIPTION: qHTS Assay for Lipid Storage Modulators in Drosophila S3 Cells;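 for cell number change: cells counted by Cell Tracker Red CMTPX staining in the red channel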
- TEST_PARAMETERS: BODIPY lipid droplet fluorescence, 18-24 h, cells fed with added oleic acid; measured here: cell count max response
The whole screen tested about 320,000 compounds, of which about 2,100 (0.66%) were called active. Inconclusive results (about 53%) are left out. The entries come from a sample that favours actives as a whole.
REPORTED_METRIC: cell number change (%)

mol_smiles=COc1ccc2ccccc2c1/C=N/NC(=O)c1ccc([N+](=O)[O-])cc1 reported_metric="cell number change" recorded_number=-15.8
mol_smiles=N#C/C(=C\c1ccc(OCc2ccccc2)cc1)C(=O)Nc1ccc(C(=O)O)cc1 reported_metric="cell number change" recorded_number=12.2
mol_smiles=CCCCNC(=O)/C(C#N)=C/c1ccc(C(=O)OC)cc1 reported_metric="cell number change" recorded_number=-26.3
mol_smiles=N#C/C(=C/c1ccc(OCc2ccc(C(=O)O)cc2)cc1)C(=O)Nc1ccccc1 reported_metric="cell number change" recorded_number=14.9
mol_smiles=COc1ccc2[nH]c(C)c(CN3CCCCC3)c(=O)c2c1 reported_metric="cell number change" recorded_number=-15.2
mol_smiles=CCOc1ccc2ccccc2c1/C=N/NC(=O)c1ccncc1 reported_metric="cell number change" recorded_number=6.87

###

- EXPERIMENT_DESCRIPTION: qHTS Assay for Lipid Storage Modulators in Drosophila S3 Cells;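 for cell number change: cells counted by Cell Tracker Red CMTPX staining in the red channel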
- TEST_PARAMETERS: BODIPY lipid droplet fluorescence, 18-24 h, cells fed with added oleic acid; measured here: cell count max response
Out of some 320,000 compounds screened, about 2,100 (0.66%) were called active. Another 53% or so got no clear call; they are omitted. The sample as a whole holds a higher share of actives than the screen did.
REPORTED_METRIC: cell number change (%)

compound=CCOC(=O)c1cc(CC)sc1/N=C/c1c(O)ccc2ccccc12 unit_tag=% recorded_number=1.95
compound=Cc1ccc(/C=N/NC(=O)c2ccco2)s1 unit_tag=% recorded_number=-9.87
compound=NC(=O)N/N=C/c1cn(-c2ccccc2)nc1-c1ccccc1 unit_tag=% recorded_number=15.1
compound=Cc1ccc(/C=N/NC(=O)c2ccc(Br)o2)s1 unit_tag=% recorded_number=-8.7
compound=O=C(N/N=C\c1cn(-c2ccccc2)nc1-c1ccccc1)c1ccc(Br)o1 unit_tag=% recorded_number=6.81
compound="CCN(CC)C1CCS(=O)(=O)C1 (stereo unspecified)" unit_tag=% recorded_number=22.1
